target.system: DNA-binding protein inhibitor ID-4 (Homo sapiens)
assay.remarks: PubChem AID 624137;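 note: a binder raises fluorescence above local background on the spot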
condition.parameters: small molecule microarray, Flag-ID4 binding, fluorescence F/B
Among all 31,000 compounds or so, about 360 (1.2%) were called active. The rule behind the calls is not given here. The sample as a whole holds a higher share of actives than the screen did.
Classes used: class 1 for active, class 0 for inactive

molecule	answer.label
CC(C)NC(=O)N(C)C[C@@H]1Oc2c(cccc2N(C)C)C(=O)N([C@@H](C)CO)C[C@H]1C	class 1
N#Cc1c(NC(=O)CCn2cnc3ccccc3c2=O)sc2c1CCCC2	class 0
CCn1c(SCC(=O)Nc2sc3c(c2C#N)CCCC3)nnc1-c1ccccc1O	class 1
CCCN(C)C[C@H]1Oc2ncc(C#CC3CCCCC3)cc2C(=O)N([C@H](C)CO)C[C@@H]1C	class 0
CNC[C@@H]1Oc2cc(C#Cc3ccc(F)cc3)ccc2S(=O)(=O)N([C@@H](C)CO)C[C@H]1C	class 0
O=C(Cc1ccccc1)N[C@H]1C=C[C@H](CC(=O)N2CCCCC2)O[C@@H]1CO	class 0
Cc1cc(C)c(OCC(=O)Nc2cccnc2)c(Br)c1	class 0
CNC[C@@H]1Oc2cc(C#CC3CCCC3)ccc2S(=O)(=O)N([C@@H](C)CO)C[C@@H]1C	class 0
C[C@@H]1CN([C@H](C)CO)C(=O)c2cc(C#CC3CCCC3)cnc2O[C@H]1CN(C)C(=O)C1CC1	class 0
CC(C)c1cn(CC[C@@H]2CC[C@@H](NC(=O)C3CCC3)[C@@H](CO)O2)nn1	class 0
N#Cc1c(NC(=O)C2CC(Cl)=CCC2C(=O)O)sc2c1CCC2 (stereo not drawn)	class 1
C[C@H]1CN([C@@H](C)CO)S(=O)(=O)c2ccc(-c3cccc(F)c3)cc2O[C@@H]1CN(C)C	class 0
CCC(Oc1cccc(NC(=O)c2ccccc2[N+](=O)[O-])c1)C(=O)c1ccccc1 (stereo not drawn)	class 0
CC(C)CC#Cc1cnc2c(c1)C(=O)N([C@H](C)CO)C[C@H](C)[C@@H](CN(C)Cc1ccccc1)O2	class 0
CC(C)NC(=O)N(C)C[C@@H]1Oc2ccc(N(C)C)cc2C(=O)N([C@@H](C)CO)C[C@H]1C	class 0
C[C@@H]1CN([C@H](C)CO)C(=O)c2cc(C#CCC3CCCC3)cnc2O[C@H]1CN(C)C(=O)c1cnccn1	class 0
O=C(C[C@H]1CC[C@H](NS(=O)(=O)c2ccccc2)[C@H](CO)O1)NCc1ccncn1	class 0
CCC(=O)N(C)C[C@H]1Oc2cc(/C=C/c3ccccc3)ccc2S(=O)(=O)N([C@H](C)CO)C[C@H]1C	class 0

###

target.system: DNA-binding protein inhibitor ID-4 (Homo sapiens)
assay.remarks: PubChem AID 624137;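 note: a binder raises fluorescence above local background on the spot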
condition.parameters: small molecule microarray, Flag-ID4 binding, fluorescence F/B
In all, about 31,000 compounds went through this assay and about 360 (1.2%) were called active. The rule behind the calls is not given here. The entries come from a sample that favours actives as a whole.
Classes used: T for active, F for inactive

line.notation	answer.label
C[C@H](CO)N1C[C@H](C)[C@H](CN(C)C(=O)Nc2ccc(F)cc2)Oc2ccc(NC(=O)Cc3cn(C)c4ccccc34)cc2CC1=O	T
CC(C)C#Cc1ccc2c(c1)O[C@@H](CN(C)CC1CCOCC1)[C@H](C)CN([C@H](C)CO)S2(=O)=O	F
C[C@H]1CN([C@@H](C)CO)S(=O)(=O)c2ccc(-c3ccccc3F)cc2O[C@H]1CN(C)C(=O)C1CC1	F
CCCN(C)C[C@@H]1Oc2ncc(-c3ccccc3F)cc2C(=O)N([C@@H](C)CO)C[C@@H]1C	F
COc1ccccc1-c1cnc2c(c1)C(=O)N([C@@H](C)CO)C[C@H](C)[C@H](CN(C)CC1CCOCC1)O2	F
CC(=O)N(C)C[C@@H]1Oc2ncc(C#CCc3ccccc3)cc2C(=O)N([C@H](C)CO)C[C@H]1C	F
CNC[C@H]1Oc2cc(C#CC3CCCC3)ccc2S(=O)(=O)N([C@H](C)CO)C[C@@H]1C	F
O=C(CSc1nccc(=O)[nH]1)Nc1cccc(Br)c1	F
CC(=O)N[C@@H]1C=C[C@H](CC(=O)NCC2CCCCC2)O[C@H]1CO	F
C[C@H](CO)N1C[C@H](C)[C@H](CN(C)C(=O)C2CC2)OCc2ccccc2-c2ccccc2C1=O	F
C[C@@H]1CN([C@@H](C)CO)S(=O)(=O)c2ccc(C#C[C@@H](C)O)cc2O[C@@H]1CN(C)C(=O)CN(C)C	F
C[C@@H]1CN([C@H](C)CO)C(=O)c2cc(C#CC3CC3)cnc2O[C@@H]1CN(C)Cc1ccccn1	F
CO[C@@H]1CN(C)C(=O)c2cc(NC(=O)c3ccccc3F)ccc2OC[C@@H](C)N(CC2CC2)C[C@H]1C	F
C[C@H](CO)N1C[C@H](C)[C@H](CN(C)C(=O)Nc2ccccc2)Oc2ccc(NC(=O)CCN3CCOCC3)cc2CC1=O	F
C[C@H]1CN([C@@H](C)CO)S(=O)(=O)c2ccc(C3=CCCCC3)cc2O[C@@H]1CN(C)Cc1ccccc1	F
CCCN(C)C[C@@H]1OCc2cnnn2CCCC(=O)N([C@H](C)CO)C[C@@H]1C	F
C[C@@H]1CN([C@@H](C)CO)C(=O)c2cc(C#CCN(C)C)cnc2O[C@@H]1CN(C)Cc1ccccn1	F
CC(C)C#Cc1ccc2c(c1)O[C@H](CN(C)Cc1ccccc1)[C@H](C)CN([C@@H](C)CO)S2(=O)=O	F
C[C@@H]1CN([C@@H](C)CO)S(=O)(=O)c2ccc(-c3cccc(C#N)c3)cc2O[C@@H]1CN(C)Cc1cccc(F)c1	F
O=C(C[C@@H]1CC[C@@H](NC(=O)C2CC2)[C@@H](CO)O1)NCc1ccccc1Cl	F
C[C@H](CO)N1C[C@H](C)[C@@H](CN(C)C)Oc2ncc(-c3cccc(F)c3)cc2C1=O	F
C[C@@H]1CN([C@@H](C)CO)C(=O)c2cc(C3=CCCC3)cnc2O[C@H]1CN(C)Cc1ccccc1F	F
C[C@H](CO)N1C[C@H](C)[C@H](CN(C)Cc2ccncc2)Oc2ccc(NC(=O)Cc3cn(C)c4ccccc34)cc2CC1=O	F
C[C@@H]1CN([C@H](C)CO)C(=O)c2cc(C#CC3CC3)cnc2O[C@H]1CN(C)C(=O)CC1CC1	F
C[C@@H]1CN([C@@H](C)CO)C(=O)Cc2cc(NC(=O)CCC(F)(F)F)ccc2O[C@@H]1CN(C)C(=O)Nc1cccc2ccccc12	F
CC(C)C#Cc1cnc2c(c1)C(=O)N([C@@H](C)CO)C[C@@H](C)[C@@H](CN(C)C(=O)c1cccc(F)c1)O2	F
C[C@@H]1CN([C@@H](C)CO)C(=O)c2cc(/C=C/c3ccccc3)cnc2O[C@@H]1CN(C)C(=O)CN(C)C	F
O=C(c1cccc(S(=O)(=O)N2CCOCC2)c1)N(Cc1ccccc1)c1ccccn1	F
C/C=C/c1cnc2c(c1)C(=O)N([C@@H](C)CO)C[C@@H](C)[C@@H](CN(C)S(=O)(=O)c1ccccc1F)O2	F
C[C@@H]1CN([C@@H](C)CO)C(=O)Cc2cc(NC(=O)CCN3CCOCC3)ccc2O[C@@H]1CN(C)C(=O)Nc1cccc2ccccc12	T
COC(=O)C[C@H]1CC[C@H](NC(=O)c2ccccc2)[C@@H](CO)O1	F
C[C@@H]1CN([C@@H](C)CO)C(=O)Cc2cc(NC(=O)Cc3cn(C)c4ccccc34)ccc2O[C@H]1CN(C)C(=O)NC1CCCCC1	F
